# Test system: DU-145
# protocol-details: NCI tumour cell line growth inhibition, 48 h
Calls of active or inactive are those of the source. Cut-off read from the data, not from the text of the source: active = GI50 up to about 1.1 µM and inactive = higher.
Entries and their measured GI50 follow.
readout-kind: GI50

compound-structure: Cn1c(=O)c(Cl)c(N=[N+]=[N-])c2ccccc21
observed: > 100 µM (inactive)
--
compound-structure: Cc1ccc(C(=O)N/N=C(\N=N\c2ccccc2Cl)c2ccc(N(C)C)cc2)cc1
observed: 2.61 µM (inactive)
--
compound-structure: Nn1c(CCCCCCCCc2nnc(-c3c(O)ccc4ccccc34)n2N)nnc1-c1c(O)ccc2ccccc12
observed: > 100 µM (inactive)

* * *

# System: NCI-H226
# protocol-details: NCI tumour cell line growth inhibition, 48 h
Calls of active or inactive are those of the source. Cut-off read from the data, not from the text of the source: active = GI50 up to about 1.1 µM and inactive = higher.
Below: a set of entries, each annotated with reported GI50.
readout-kind: GI50

molecule: Cc1[nH]n(-c2ccccc2)c(=O)c1C(N(CCc1ccccc1)C1=NCC(C)S1)(C(F)(F)F)C(F)(F)F (centres undefined)
readout-kind: GI50
observed: 6.28 µM (inactive)
//
molecule: CC(C)=CCC[C@@H](C)C1=C(O)C(=O)C(C)=C(Nc2ccccc2)C1=O
readout-kind: GI50
observed: 26.7 µM (inactive)
//
molecule: Cc1ccc(S(=O)(=O)n2cnc(CC(NC(=O)C3CCC(=O)N3C(=O)OCc3ccccc3)C(=O)N3CCCC3C(=O)NN)c2)cc1 (centres undefined)
readout-kind: GI50
observed: 24.8 µM (inactive)
//
molecule: COc1cc(C2c3c(ccc4ccccc34)C(=O)C3CCC(=O)N32)cc(OC)c1O (centres undefined)
readout-kind: GI50
observed: > 25 µM (inactive)

* * *

# System: MDA-N
# protocol-details: NCI tumour cell line growth inhibition, 48 h
Active and inactive are the calls of the source. No stated cut-off is given here; in the data, active = GI50 up to about 1.1 µM and inactive = higher.
Labels: Yes (active), No (inactive)

molecule: CN1CC2=C(N=C(S)NC2c2ccccc2Cl)/C(=C/c2ccccc2Cl)C1 (configuration not stated)
label: No

molecule: C[C@H]1C(OCCOC2O[C@@H]3O[C@@]4(C)CC[C@H]5[C@H](C)CCC([C@H]2C)[C@@]35O4)O[C@@H]2O[C@@]3(C)CC[C@H]4[C@H](C)CCC1[C@@]24O3 (some centres not stated)
label: No

molecule: CC(C)=CCC[C@@H](C)C1=C(O)C(=O)C(C)=C(Nc2ccccc2)C1=O
label: No

molecule: O=[N+]([O-])c1cc(Cl)cc2cc(Br)cnc12
label: No

molecule: CCN(CC)CCNc1n[n+]([O-])c2cc([N+](=O)[O-])ccc2[n+]1[O-]
label: Yes

molecule: O=C1OC(OC/C(Br)=C(/Br)COC2OC(=O)C(Cl)=C2Cl)C(Cl)=C1Cl (configuration not stated)
label: No

molecule: N/N=C(\C(=O)Nc1ccc([N+](=O)[O-])cc1)C(C1=Nc2cc([N+](=O)[O-])ccc2NC1)[N+](=O)[O-] (configuration not stated)
label: No

molecule: O=c1oc2ccccc2c(Nc2ccc3c(c2)Sc2ccccc2O3)c1[N+](=O)[O-]
label: No

molecule: O=C(O)CSCCc1ccccc1
label: No

molecule: C=C(CCC/C(C)=C/C=C/[C@@H](C)CCCc1ccoc1)C[C@@H]1OC(=O)[C@H](C)[C@@H]1O
label: No

molecule: CC1(C)CCCCCCC2OC2CCCCCC(C)(C)C1=O (configuration not stated)
label: No

molecule: CCN1C(=O)C(C)S/C1=N\NC(=O)CSc1nc2ccccc2c(=O)n1CC (configuration not stated)
label: No

molecule: CCCCCCc1cc2cc(-c3csc(CC#N)n3)c(=O)oc2cc1O
label: No

molecule: O=C1C=C(OCCCl)C(=O)c2c(O)ccc(O)c21
label: Yes

molecule: COC(=O)c1cc(NC(=O)Cn2c3ccccc3c3ccccc32)cn1C
label: No

molecule: Cc1nc2ccccc2nc1N1CCCC1
label: No

molecule: O=C1C(CN2CCCCC2)CCCC1CN1CCCCC1 (configuration not stated)
label: No

molecule: COc1cc(CC(C)=O)cc(OC)c1
label: No

molecule: O=C(O)C(C1NCCS1)N1Cc2ccccc2C1 (configuration not stated)
label: No

molecule: COc1cc(C2C3=C(COC3=O)Oc3cc4c(cc32)OCO4)cc(OC)c1OC(C)=O (configuration not stated)
label: Yes

molecule: COC(=O)N[C@H](C(=O)NC(OCc1ccccc1)C1COC(C)(C)O1)C(C)O[Si](C)(C)C(C)(C)C (some centres not stated)
label: No

molecule: O=S(=O)(O)CCS
label: No
